- Test system: OVCAR-4 ovarian
- TEST_DETAILS: NCI tumour cell line growth inhibition, 48 h
TGI by entry:

N#Cc1nc(/C=C/c2nc(C#N)c(N)o2)oc1N
> 10 µM
CC(C)CC(=O)[O-].N.N.N.N.N.[Co+3].[O-][Cl+3]([O-])([O-])[O-]
> 100 µM
O=c1oc2ccccc2c(O)c1C(C/C(CCN1CCCC1)=N/O)c1ccccc1 (stereo not given)
> 100 µM
N#Cc1c(N)c2c(c(-c3ccccc3)c1-c1ccccc1)C(=O)N(NC(=S)Nc1ccccc1)C2=O
> 100 µM
CC(C)S(=O)(=O)ON1C(=O)c2ccc(N(C)C)cc2C1=O
33.7 µM
CN1CCN(Cc2ccc(NC(=O)c3cncc(C#Cc4cnc5ccc(Cl)nn45)c3)cc2C(F)(F)F)CC1
3.66 µM
COc1cc(Nc2cnc3ccc(N)cc3n2)cc(OC)c1OC
> 100 µM
Cc1cc(C)c(-n2c(-c3ccccc3)cs/c2=N\N=C2C=C(C(C)(C)C)C(=O)C(C(C)(C)C)=C2)c(C)c1
> 100 µM

Exercise: Any idea what its TGI is? The compound is O=c1ccc2[n+]([O-])c3ccc(O)cc3oc-2c1
Key: 97 µM

Exercise: Try the compound CC(=O)OCC1OC(n2c(-c3ccc(Cl)cc3)cc(-c3ccccc3)c(C#N)c2=S)C(OC(C)=O)C(OC(C)=O)C1OC(C)=O (stereo not given)
Key: 3.3 µM

Exercise: Can you handle CC1(C)C2CCC(=O)C1C(OCc1ccccc1)C2 (stereo not given) next?
Key: > 100 µM

* * *

- System: OVCAR-4 ovarian
- TEST_DETAILS: NCI tumour cell line growth inhibition, 48 h
# log10 of TGI listing for each entry below
Hey, these are logged values: log10 of TGI, µM being the unit before logging.

# annotated cases, reported log10 of TGI shown
Cc1nc(Nc2ccc(Cl)cc2)sc1C(=O)NNC(=O)C(=O)NN
1.54
Cc1cnc(NC2CCOCC2)nc1-n1cnc(C(=O)N[C@H](CN)c2cc(F)cc(Cl)c2)c1
1.73
CC(=O)O[C@H](C[C@@H](C)[C@H]1C(=O)[C@H](O)[C@@]2(C)C3CC[C@H]4C(C)(C)[C@@H](OC5OCC(O)C(O)C5O)CC[C@@]45C[C@@]35CC[C@]12C)[C@@H]1OC1(C)C (stereo not given in full)
1.81
CCOC(=O)C#Cc1c(C(=O)OCC)nnn1Cc1ccc(C(F)(F)F)cc1
1.07

Exercise: Recorded log10 of TGI for C=C(C)[C@@H]1CC[C@]2(C)[C@H](CC[C@@H]3[C@@H]([C@@](C)(O)CCC=C(C)C)CC[C@]32C)[C@@]1(C)CCC(=O)N1CCN(C)CC1 with OVCAR-4 ovarian, please?
Key: 1.37

Exercise: Queued: O=C(O)c1c[nH]c2cc(OCc3ccccc3)ccc2c1=O
Key: 1.49

Exercise: What do you get for COc1cccc(-n2ncc3c(N/N=C/c4cccc(F)c4)ncnc32)c1 ?
Key: 1.13

Exercise: Ok, now O=C1C=C(Nc2cccnc2)c2ccccc2C1=O
Key: 1.30

Exercise: Follow-up entry: CC(C)=C[C@@H]1C[C@H](C)[C@H]2CC[C@H](C)c3c(O)c(OC4OCC(O)C(O)C4O)c(C)c1c32 (stereo not given in full)
Key: 1.34

Exercise: Please give the result for Nc1cc2ccccc2c(O)c1O too.
Key: 0.46

Exercise: Next entry: COc1cc(/C=C\c2cc(/C=C\c3ccc(O)c(OC)c3)n(C(=O)COc3ccccc3)n2)ccc1O
Key: 1.09

src = PubChem BioAssay (NCI)
